STUDY SYSTEM: BCL2 D103Y (Homo sapiens, UniProt P10415, D103Y)
PROCEDURE TEXT: TR-FRET competitive binding assay, BCL2 D103Y
CONDITION CONTEXT: Ki determined from IC50, read-out: TR_FRET EKI_Bcl2 D103Y
ENDPOINT NAME: Ki (pM)

given_smiles=Cc1c(N(C(=O)c2cc(-c3cc4c(cc3C(=O)N3Cc5ccccc5C[C@H]3CN3CCCCC3)CN(C(=O)Cc3ccc(OCCN5CCN(CCF)CC5)cc3)CC4)n(C)c2C)c2ccc(O)cc2)cc(C#N)n1C study_system="BCL2 D103Y (Homo sapiens, UniProt P10415, D103Y)" endpoint_name=Ki reported_value=130
given_smiles=COc1ccc(N(C(=O)c2cc(-c3cc4c(cc3C(=O)N3Cc5ccccc5C[C@H]3C)CN(C(=O)Cc3ccc(OCCN5CCOCC5)cc3)CC4)n(C)c2C)c2ccccc2)cn1 study_system="BCL2 D103Y (Homo sapiens, UniProt P10415, D103Y)" endpoint_name=Ki reported_value=70
given_smiles=Cc1c(N(C(=O)c2cc(-c3cc4c(cc3C(=O)N3Cc5ccccc5C[C@H]3CN3CCC[C@H](C)C3)CN(C(=O)Cc3ccc(OCCN5CCOCC5)cc3F)CC4)n(C)c2C)c2ccc(O)cc2)cc(C#N)n1C study_system="BCL2 D103Y (Homo sapiens, UniProt P10415, D103Y)" endpoint_name=Ki reported_value=320
given_smiles=Cc1c(C(=O)N(c2ccc(O)cc2)c2cc(C#N)n(C(F)F)c2C)cc(-c2cc3c(cc2C(=O)N2Cc4ccccc4C[C@H]2CN2CCCC2)CN(C(=O)Cc2ccc(OCCN4CCOCC4)cc2F)CC3)n1C study_system="BCL2 D103Y (Homo sapiens, UniProt P10415, D103Y)" endpoint_name=Ki reported_value=110
given_smiles=Cc1cc(OCCN2CCOCC2)c(F)cc1CC(=O)N1CCc2cc(-c3cc(C(=O)N(c4ccccc4)c4cnn(C)c4)c(C)n3C)c(C(=O)N3Cc4ccccc4C[C@H]3C)cc2C1 study_system="BCL2 D103Y (Homo sapiens, UniProt P10415, D103Y)" endpoint_name=Ki reported_value=140
given_smiles=COC[C@@H]1Cc2ccccc2CN1C(=O)c1cc2c(cc1-c1cc(C(=O)N(c3ccc(O)cc3)c3cc(C#N)n(C)c3C)c(C)n1C)CCN(C(=O)Cc1ccc(OCCC3CCOCC3)cc1F)C2 study_system="BCL2 D103Y (Homo sapiens, UniProt P10415, D103Y)" endpoint_name=Ki reported_value=230
given_smiles=Cc1c(N(C(=O)c2cc(-c3cc4c(cc3C(=O)N3Cc5ccccc5C[C@H]3CN3CCCCC3)CN(C(=O)Cc3ccc(OCCN5CCOCC5)cc3Cl)CC4)n(C)c2C)c2ccc(O)cc2)cc(C#N)n1C study_system="BCL2 D103Y (Homo sapiens, UniProt P10415, D103Y)" endpoint_name=Ki reported_value=140
given_smiles=Cc1c(N(C(=O)c2cc(-c3cc4c(cc3C(=O)N3Cc5ccccc5C[C@H]3CN3CCCCC3)CN(C(=O)Cc3ccc(OCCN5CCO[C@H](C)C5)cc3)CC4)n(C)c2C)c2ccc(O)cc2)cc(C#N)n1C study_system="BCL2 D103Y (Homo sapiens, UniProt P10415, D103Y)" endpoint_name=Ki reported_value=100
given_smiles=Cc1c(N(C(=O)c2cc(-c3cc4c(cc3C(=O)N3Cc5ccccc5C[C@H]3CN3CCCCC3)CN(C(=O)Cc3ccc(OCCN5CCC(F)CC5)cc3)CC4)n(C)c2C)c2ccc(O)cc2)cc(C#N)n1C study_system="BCL2 D103Y (Homo sapiens, UniProt P10415, D103Y)" endpoint_name=Ki reported_value=180
given_smiles=Cc1c(N(C(=O)c2cc(-c3cc4c(cc3C(=O)N3Cc5ccccc5C[C@H]3C)CN(C(=O)Cc3ccccc3)CC4)n(C)c2C)c2ccc(O)cc2F)cc(C#N)n1C study_system="BCL2 D103Y (Homo sapiens, UniProt P10415, D103Y)" endpoint_name=Ki reported_value=2350

----------
STUDY SYSTEM: BCL2 G101V (Homo sapiens, UniProt P10415, G101V)
PROCEDURE TEXT: TR-FRET competitive binding assay, BCL2 G101V
CONDITION CONTEXT: BCL2 G101V; Ki determined from IC50; read-out: TR_FRET EKI_Bcl2 G101V
ENDPOINT NAME: Ki (nM)

compound=COCC(=O)N1CCc2cc(-c3cc(C(=O)N(c4ccccc4)c4cc(C#N)n(C)c4C)c(C)n3C)c(C(=O)N3Cc4ccccc4C[C@H]3CN3CCCCC3)cc2C1 reported_value=17.4
compound=Cc1c(N(C(=O)c2cc(-c3cc4c(cc3C(=O)N3Cc5ccccc5C[C@H]3C)CN(C(=O)Cc3ccc(OCCC5CCOCC5)nc3)CC4)n(C)c2C)c2ccc(O)cc2)cc(C#N)n1C reported_value=0.7
compound=Cc1c(N(C(=O)c2cc(-c3cc4c(cc3C(=O)N3Cc5ccccc5C[C@H]3C)CN(C(=O)Cc3ccc(OCCN5CCN6CCOC[C@@H]6C5)cc3)CC4)n(C)c2C)c2ccc(O)cc2)cc(C#N)n1C reported_value=0.3
compound=Cc1c(C(=O)N(c2ccccc2)c2cnn(C(F)F)c2)cc(-c2cc3c(cc2C(=O)N2Cc4ccccc4C[C@H]2C)CN(C(=O)Cc2ccc(OCCN4CCOCC4)cc2)CC3)n1C reported_value=3.6
compound=Cc1c(C(=O)N(c2ccccc2)c2cnn(C)c2)cc(-c2cc3c(cc2C(=O)N2Cc4ccccc4C[C@H]2C)CN(C(=O)Cc2cccc(N4CC5(CN(C)C5)C4)c2)CC3)n1C reported_value=2
compound=Cc1c(N(C(=O)c2cc(-c3cc4c(cc3C(=O)N3Cc5ccccc5C[C@H]3CN(C(C)C)C(C)C)CN(C(=O)Cc3ccc(OCCN5CCOCC5)cc3F)CC4)n(C)c2C)c2ccc(O)cc2)cc(C#N)n1C reported_value=1.1
compound=Cc1c(C(=O)N(c2ccccc2)c2cnn(C)c2)cc(-c2cc3c(cc2C(=O)N2Cc4ccccc4C[C@H]2C)CN(C(=O)Cc2ccc(OCCC4CCN(C)CC4)cc2)CC3)n1C reported_value=0.52
compound=Cc1c(N(C(=O)c2cc(-c3cc4c(cc3C(=O)N3Cc5ccccc5C[C@H]3CN3CCCCC3)CN(C(=O)Cc3ccc(OCCN5CCO[C@H](C)C5)cc3)CC4)n(C)c2C)c2ccc(O)cc2)cc(C#N)n1C reported_value=0.3
compound=COc1ccc(CC(=O)N2CCc3cc(-c4cc(C(=O)N(c5ccc(O)cc5)c5cc(C#N)n(C)c5C)c(C)n4C)c(C(=O)N4Cc5ccccc5C[C@H]4CN4CCCCC4)cc3C2)c(F)c1 reported_value=0.5
compound=Cc1c(N(C(=O)c2cc(-c3cc4c(cc3C(=O)N3Cc5ccccc5C[C@H]3C)CN(C(=O)Cc3ccc(OCCN5CCOCC5)cc3)CC4)n(C)c2C)c2ccc(O)cc2)cc(C#N)n1C reported_value=0.3
compound=Cc1c(N(C(=O)c2cc(-c3cc4c(cc3C(=O)N3Cc5ccccc5C[C@H]3CN3CCOCC3)CN(C(=O)Cc3ccc(OCCC5CCOCC5)cc3F)CC4)n(C)c2C)c2ccc(O)cc2)cc(C#N)n1C reported_value=0.3
compound=Cc1c(C(=O)N(c2ccccc2)c2cnn(C)c2)cc(-c2cc3c(cc2C(=O)N2Cc4ccccc4C[C@H]2C)CN(C(=O)Cc2ccc(OCCN(C)C)cc2)CC3)n1C reported_value=3.7
compound=Cc1c(N(C(=O)c2cc(-c3cc4c(cc3C(=O)N3Cc5ccccc5C[C@H]3CN3CCCCC3)CN(C(=O)Cc3ccc(OCCN5CCOC[C@H]5C)cc3F)CC4)n(C)c2C)c2ccc(O)cc2)cc(C#N)n1C reported_value=0.3
compound=Cc1c(C(=O)N(c2ccccc2)c2cc(C#N)n(CCO)c2C)cc(-c2cc3c(cc2C(=O)N2Cc4ccccc4C[C@H]2C)CN(C(=O)Cc2ccccc2)CC3)n1C reported_value=3.2
compound="Cc1c(N(C(=O)c2cc(-c3cc4c(cc3C(=O)N3Cc5ccccc5C[C@H]3C)CN(C(=O)Cc3ccc(N5CCC(N6CCOCC6)C5)cc3)CC4)n(C)c2C)c2ccc(O)cc2)cc(C#N)n1C (single isomer, unassigned)" reported_value=0.9
compound=Cc1c(N(C(=O)c2cc(-c3cc4c(cc3C(=O)N3Cc5ccccc5C[C@H]3CN3CCCCC3)CN(C(=O)Cc3ccc(OCCC5CCOCC5)cc3)CC4)n(C)c2C)c2ccc(O)cc2)cc(C#N)n1C reported_value=0.5
compound=Cc1c(N(C(=O)c2cc(-c3cc4c(cc3C(=O)N3Cc5ccccc5C[C@H]3C)CN(C(=O)Cc3ccc(OCCN5CCOCC5)cc3)CC4)n(C)c2C)c2ccc(F)cc2)cc(C#N)n1C reported_value=1.5
compound="Cc1c(N(C(=O)c2cc(-c3cc4c(cc3C(=O)N3Cc5ccccc5C[C@H]3C)CN(C(=O)C3CCN(c5ccccc5)C3=O)CC4)n(C)c2C)c2ccc(O)cc2)cc(C#N)n1C (stereo partly shown)" reported_value=6.9
compound=Cc1c(N(C(=O)c2cc(-c3cc4c(cc3C(=O)N3Cc5ccccc5C[C@H]3C)CN(C(=O)c3cnc(-c5ccccc5)s3)CC4)n(C)c2C)c2ccc(O)cc2)cc(C#N)n1C reported_value=4
